Test system: NCI-H522
Procedure details: NCI tumour cell line growth inhibition, 48 h
Where a name gives a salt, the structure may show the parent alone. Activity calls are given as the source filed them. Rule as the data show it: active = GI50 up to about 1.1 µM and inactive = higher.
Endpoint label: GI50

{"Compound": "O=C(CCCCCCCCCCc1ccccc1)C1=C(O)CC(O)CC1=O (stereo unspecified)", "GI50": "33.4 µM (inactive)"}

Kindly note the recorded GI50 for CCOC(=O)c1cc(C2CCN(c3ccccc3)C2=O)c(C(=O)/C=C(/C)O)[nH]1 (stereo unspecified) , which is 67.5 µM (inactive)

Kindly note the recorded GI50 for Cc1ccc2nc(/C=N/c3ccccc3Cl)cc(C)c2c1 , which is 20 µM (inactive)

Kindly note the recorded GI50 for NC(Cc1ccc(O)cn1)C(=O)O (stereo unspecified) , which is > 100 µM (inactive)

Kindly note the recorded GI50 for COC(=S)OC1CC(n2cnc3c(=O)[nH]cnc32)OC1CO[Si](C)(C)C(C)(C)C (stereo unspecified) , which is > 100 µM (inactive)

Kindly note the recorded GI50 for CN1CCC(CN2c3ccccc3Sc3ccccc32)C1 (stereo unspecified) [METHDILAZINE HYDROCHLORIDE] , which is 16.7 µM (inactive)

----------
Test system: UACC-62
Procedure details: NCI tumour cell line growth inhibition, 48 h
Active and inactive are the calls of the source. Rule as the data show it: active = GI50 up to about 1.1 µM and inactive = higher.
Endpoint label: GI50

Kindly note the recorded GI50 for C[C@H](NC1=CC(=O)C(N[C@@H](C)[C@H](O)c2ccccc2)=CC1=O)[C@H](O)c1ccccc1 , which is 87.9 µM (inactive)

Kindly note the recorded GI50 for C/C=C/C(CC(O)(C(F)(F)F)C(F)(F)F)=N/NC(N)=S , which is > 10 µM (inactive)

Kindly note the recorded GI50 for O=C(O)c1cccc(S(=O)(=O)NCCO)c1 , which is > 100 µM (inactive)

Kindly note the recorded GI50 for COc1cc(OC)c2c(O)c(S(=O)(=O)c3ccc(C)cc3)c(=O)oc2c1 , which is > 100 µM (inactive)

Kindly note the recorded GI50 for O=C1OC2(CC1C1(O)C3CC4CC(C3)CC1C4)C1CC3CC(C1)CC2C3 (centres undefined) , which is > 100 µM (inactive)

Kindly note the recorded GI50 for Cc1c2cc[n+](COC(=O)c3ccccc3)cc2c(C)c2c1[nH]c1ccccc12 , which is 1.5 µM (inactive)

Kindly note the recorded GI50 for N#C/C(=C\c1ccncc1)c1csc2ccccc12 , which is 22.1 µM (inactive)

Kindly note the recorded GI50 for COC(=O)[C@@]12C(=O)C(C)C(=O)[C@]1(C)C(C)=C[C@H]1[C@]3(C=O)CC[C@H](OC(C)=O)C(C)(C)[C@H]3CC[C@@]12C (some centres undefined) , which is > 100 µM (inactive)

Kindly note the recorded GI50 for CC1(C)[C@@H]2C[C@H]1C(Cc1ccc(C[C@H]3c4cc(-c5ccccn5)ncc4[C@H]4C[C@@H]3C4(C)C)cc1)c1cc(-c3ccccn3)ncc12 (some centres undefined) , which is 0.67 µM (active)

Kindly note the recorded GI50 for COC(=O)C(/C(=N/NC(N)=O)C(=O)Nc1ccc(C)cc1)c1nc2ccc([N+](=O)[O-])cc2nc1O (centres undefined) , which is > 100 µM (inactive)

Kindly note the recorded GI50 for CCOC(=O)c1cn2c(n1)sc1cc(OC)ccc12 , which is 8.63 µM (inactive)

----------
System: XF498
Procedure details: NCI tumour cell line growth inhibition, 48 h
Active and inactive are the calls of the source. No stated cut-off is given here; in the data, active = GI50 up to about 1.1 µM and inactive = higher. Where a SMILES comes first, the peptide text is derived from it. [ ]: non-standard residue; d: D form. The star is where a group is joined. ξ: configuration not given here. NMeF = CN[CH](Cc1ccccc1)C(=O)O; ξNMe2Val = CC(C)C(C(=O)*)N(C)C; NMeV = CN[CH](C(=O)O)C(C)C; OtBu = CC(C)(C)O*
Returns: one label drawn from active, inactive

Example entries and their recorded answers appear below.
{"Molecule": "O=Cc1ccccc1OCCOc1cc(OCCOc2ccccc2C=O)c(OCCOc2ccccc2C=O)cc1OCCOc1ccccc1C=O", "Assigned category": "inactive"}
{"Molecule": "O=C1C2[C@@H](C(=O)N1c1ccc(Br)cc1)C13C(=CC2([N+](=O)[O-])[C@@H]2C(=O)N(c4ccc(Br)cc4)C(=O)[C@@H]21)c1ccccc1N3c1ccccc1 (stereo partly drawn)", "Assigned category": "inactive"}
{"Molecule": "CCOC(=O)NC(=O)c1cn(CCCCCCCCCCC(=O)N2CCN(CCn3cc(C(=O)NC(=O)OCC)c(=O)[nH]c3=O)CC2)c(=O)[nH]c1=O", "Assigned category": "inactive"}
{"Molecule": "COc1cccc2c1C(=O)c1c(O)c3c(c(O)c1C2=O)C[C@@](O)(C(=O)CO)CC3OC1CC(N)C(OC2CCCCO2)C(C)O1 (stereo partly drawn)", "Assigned category": "active"}
{"Molecule": "O=C(O)CCCNS(=O)(=O)c1ccccc1", "Assigned category": "inactive"}
{"Molecule": "CCn1c(=O)c2ccccc2n2c(=O)c3cc4ccccc4cc3nc12", "Assigned category": "inactive"}
{"Molecule": "CCOC(=O)C1=C(OC(OCC)C(CC)[Se]c2ccccc2)CCCC1 (stereo not drawn)", "Assigned category": "inactive"}

Let's switch to this molecule now.
Qu. Fill in: this test's call for CC(C)C(C(=O)N(C)C(Cc1ccccc1)C(=O)N(C)C(C(=O)N(C)C(C(=O)N1CCCC1C(=O)OC(C)(C)C)C(C)C)C(C)C)N(C)C (stereo not drawn) (ξNMe2Val-[NMeF][NMeV][NMeV]P-OtBu; configuration not given here) is ___
Ans. inactive

----------
Test system: NCI-H522
Procedure details: NCI tumour cell line growth inhibition, 48 h
The source made the active and inactive calls. Cut-off read from the data, not from the text of the source: active = GI50 up to about 1.1 µM and inactive = higher.
Returns: one label drawn from t = active, f = inactive

Example entries and their recorded answers appear below.
{"Compound": "COC(=O)C1=C(C(=O)OC)C(C(=O)c2ccccc2)N2N=C(c3ccc(Cl)cc3)C=CC12 (stereo unspecified)", "Assigned category": "f"}
{"Compound": "CC1(C)CCC[C@]2(C)[C@H]3[C@H](C#N)c4cc(O)c(O)cc4O[C@@]3(C)CC[C@@H]12", "Assigned category": "f"}
{"Compound": "CN1CCN(C(=S)N(C(=O)c2ccco2)c2ccccc2)CC1", "Assigned category": "f"}
{"Compound": "CCOC(=O)CNC(=O)OCc1ccccc1", "Assigned category": "f"}
{"Compound": "Cc1ccc(S(=O)(=O)OCCn2cnc3nc(NC(=O)c4ccccc4)[nH]c(=O)c32)cc1", "Assigned category": "f"}

Qu. Fill in: this test's call for CCO/C([O-])=C(/C=O)[n+]1c(C)n(C)c2ccccc21 is ___
Ans. f

Qu. Fill in: this test's call for O=C(c1ccccc1)C(Nc1ccc2ccccc2c1)c1ccccc1 (stereo unspecified) is ___
Ans. f

Qu. Fill in: this test's call for COc1cccc2c1C(=O)c1c(O)c3c(c(O)c1C2=O)C[C@@](O)(C(=O)CO)CC3OC1CC(N)C(OC2CCCCO2)C(C)O1 (stereo partly specified) is ___
Ans. t

Qu. Fill in: this test's call for CCCCCCCCCCCCC1NC(=N)NC2(CCCO2)C1C(=O)OC (stereo unspecified) is ___
Ans. f

Qu. Fill in: this test's call for O=C1OCCC12CN(Cc1ccccc1)N=N2 (stereo unspecified) is ___
Ans. f

Qu. Fill in: this test's call for Fc1c(F)c(C(F)(F)F)c(F)c(F)c1N/N=C/c1cn(Cc2ccccc2)c2ccccc12 is ___
Ans. f

----------
Tested on: DU-145
Procedure details: NCI tumour cell line growth inhibition, 48 h
The source made the active and inactive calls. Rule as the data show it: active = GI50 up to about 1.1 µM and inactive = higher. Starred links: 1 amine or outer side, 2 acyl side, 3 side chain; linkers in the order of their positions; H or OH if unused. Positions of bridges follow the written chain, without caps; N, C: chain ends. Non-standard residues stand in square brackets, D forms with d. Residues, ends and D or L forms follow the SMILES beside them. Chains are numbered I, II in the order given. Actinocin(9to1) = Cc1c2oc3c(C)ccc(C(=O)[*:1])c3nc-2c(C(=O)[*:2])c(N)c1=O; NMeF = CN[CH](Cc1ccccc1)C(=O)O; Sar = CNCC(=O)O
Returns: one label drawn from 1 for active, -1 for inactive

Example entries and their recorded answers appear below.
{"Compound": "Cc1cc(=O)c2cc(/N=C/c3ccc([N+](=O)[O-])o3)ccc2o1", "Assigned category": -1}
{"Compound": "CC(=O)SC(C[N+](=O)[O-])c1ccccc1 (centres undefined)", "Assigned category": -1}
{"Compound": "O=c1c(C(c2ccccc2)c2c(O)oc3cc(O)ccc3c2=O)c(O)oc2cc(O)ccc12", "Assigned category": -1}

Qu. Fill in: this test's call for COc1cc(OC)c2c(O)c(S(=O)(=O)c3ccc(C)cc3)c(=O)oc2c1 is ___
Ans. -1

Qu. Fill in: this test's call for C[C@H]1C[C@H]2[C@@H]3C(C)(C)O[C@]4(O)C(=O)[C@]5(O)[C@@H](C)CC[C@H]1[C@]25C(=O)[C@]34C is ___
Ans. -1

Qu. Fill in: this test's call for C=C1C(=O)O[C@H]2C/C(C)=C/CC/C(C)=C/CC[C@@](C)(O)[C@@H](I)C[C@@H]12 is ___
Ans. -1

Qu. Fill in: this test's call for CN(C)c1ccc2nc(CC(O)(C(F)(F)F)C(F)(F)F)ccc2c1 is ___
Ans. -1

Qu. Fill in: this test's call for Cc1c2oc3c(C)ccc(C(=O)NC4C(=O)NC(C(C)C)C(=O)N5CCCC5C(=O)N(C)CC(=O)N(C)C(Cc5ccccc5)C(=O)OC4C)c3nc-2c(C(=O)NC2C(=O)NC(C(C)C)C(=O)N3CCCC3C(=O)N(C)CC(=O)N(C)C(Cc3ccccc3)C(=O)OC2C)c(N)c1=O (centres undefined) (I: TVP[Sar][NMeF] / II: TVP[Sar][NMeF]; ester I:1-I:C, II:1-II:C; linker I:N-II:N via Actinocin(9to1); configuration not given here) is ___
Ans. 1
